Assay: small-molecule microarray binders of probe aXIP, primary screen, biochemical, NeuroSMM set, 635/667 nm fluorescence (AID 1119);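 note: probe is the protein aXip251-270 applied at 1 µg/mL to compound-printed slides; binding of probe to printed compounds measured as 667 nm fluorescence plus signal to noise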
Conditions: higher = more signal, called active from +8 up or from −8 down
Entries annotated with measured composite Z-score
Provide a numeric answer; units are not to be included.

// known answers, use as guide
COc1ccc(O[C@H]2C=C[C@@H](c3ccccc3)O[C@@H]2CON=C2c3cc(OC)ccc3O[C@H](c3cccc(OC)c3)[C@H]2O)cc1 : -0.222
C[C@H]1CC[C@H]2C(=O)N[C@H](Cc3ccccc3)C(=O)N2[C@@H]1c1ccccc1 : 0.418
COc1cccc([C@H]2Oc3ccc(OC)cc3C(=NOCC[C@@H]3C=C[C@H](OC(C)=O)[C@@H](COC(C)=O)O3)[C@@H]2O)c1 : 0.551
COC(=O)[C@H](C)NC(=O)CCC1CC(OC(=O)NCc2cccc3ccccc23)CC2(CCCC(COC(=O)NCCc3ccccc3OC)O2)O1 (some centres not stated) : -0.18
COc1ccc(O[C@H]2C=C[C@@H](c3ccccc3)O[C@@H]2COC(=O)NCc2cccc3ccccc23)cc1 : -0.341
O=C1[C@H]2[C@H]3[C@H](O)[C@H](O)CC(=NOCc4ccccc4)[C@H]3CC[C@H]2C(=O)N1C1CCCCC1 : 0.447

// next item, composite Z-score requested
## Input Fill in: composite Z-score of `CC(C)(C)N1C(=O)[C@H]2[C@H]3[C@H](O)[C@H](O)CC(=NNC(=O)OCc4ccccc4)[C@H]3CC[C@H]2C1=O` is ___
## Output 0.175
